- Assayed system: Rhodazain (Trypanosoma brucei rhodesiense, UniProt Q95PM0)
- Sequence (Q95PM0 entry or part of it): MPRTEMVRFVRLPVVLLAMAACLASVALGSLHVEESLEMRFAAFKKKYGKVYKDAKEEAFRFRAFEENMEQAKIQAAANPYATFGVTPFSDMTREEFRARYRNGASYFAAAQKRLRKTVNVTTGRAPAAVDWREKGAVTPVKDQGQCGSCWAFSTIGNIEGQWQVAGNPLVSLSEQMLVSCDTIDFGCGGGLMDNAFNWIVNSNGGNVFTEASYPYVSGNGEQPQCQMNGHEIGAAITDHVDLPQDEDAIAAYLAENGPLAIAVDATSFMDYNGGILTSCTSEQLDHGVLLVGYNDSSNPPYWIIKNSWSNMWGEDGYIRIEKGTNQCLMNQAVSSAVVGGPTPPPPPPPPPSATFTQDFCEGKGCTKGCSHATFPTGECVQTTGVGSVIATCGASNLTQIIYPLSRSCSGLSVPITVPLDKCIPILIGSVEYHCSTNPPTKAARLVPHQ
- Method summary: Cysteine protease inhibition, progress curve method, rhodazain
- Format: biochemical, Trypanosoma brucei rhodesiensi
- Measurement context: Rhodazain Ki (nM), 10 uM Cbz-Leu-Arg-AMC, 100 mM Na acetate pH 5.5, 5 mM cysteine
Field: label. Allowed values: Y (Ki < 5 nM) or N (Ki >= 5 nM).

Q) Consider the compound COc1ccc2oc(C(=O)N[C@H](CC(C)C)C(=O)N[C@@H]3CCCN(S(=O)(=O)c4ncccc4C)CC3=O)cc2c1 (single isomer, unassigned) [Example 171] . Is its Ki strictly less than 5 nM?
A) Y

Q) Entry to check: CC(C)C[C@H](NC(=O)c1cc2ccccc2s1)C(=O)N[C@H]1C[C@H](C)CN(S(=O)(=O)c2ccccn2)CC1=O [Example 197]
A) Y

Q) Okay, and CC(C)C[C@H](NC(=O)c1cc2ccccc2o1)C(=O)N[C@H]1CCCN(S(=O)(=O)c2cccs2)CC1=O [Example 142] ?
A) N

Q) Next compound up: CC(C)CC(NC(=O)c1nc(-c2ccccc2)oc1C(F)(F)F)C(=O)NC1CCCN(S(=O)(=O)c2ccccn2)CC1=O (single isomer, unassigned) [Example 105]
A) N

Q) Then what about the compound CC(C)C[C@@H](NC(=O)c1ccc2ccccc2c1)C(=O)N[C@@H]1CCCN(S(=O)(=O)c2ccccn2)CC1=O (single isomer, unassigned) [Example 155] ?
A) Y
